TARGET_OR_TEST_SYSTEM: p53 Y220C mutant protein (amino acid residues 94-293) (Homo sapiens, UniProt P04637, Y220C)
Construct: p53 Y220C mutant protein (amino acid residues 94-293)
Sequence (P04637 94-293, stated change not applied): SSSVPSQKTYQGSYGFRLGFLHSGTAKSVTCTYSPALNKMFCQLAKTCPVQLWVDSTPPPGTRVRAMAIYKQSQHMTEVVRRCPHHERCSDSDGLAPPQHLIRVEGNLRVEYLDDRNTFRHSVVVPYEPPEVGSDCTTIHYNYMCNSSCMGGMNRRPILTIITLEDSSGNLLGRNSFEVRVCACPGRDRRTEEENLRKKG
TEST_NAME: Surface Plasmon Resonance (SPR) assay, p53 Y220C Kd_kinetic
RECORDED_CONDITIONS: multi-cycle kinetics, 16 or 20 °C, pH 7.5, 1:1 binding model
pKd: −log10 of the molar value.
# pKd per entry
ASSAY_METRIC: pKd

                                chem_smiles  endpoint_result
0  CNC(=O)c1ccc(NCc2nc(-c3cc4c(N[C@@H]5CCN(C)C[C@@H]5F)cccn4c3SC(F)(F)F)no2)nc1           > 8.00
1  CN1CC[C@@H](Nc2cccn3c(SC(F)(F)F)c(-c4noc(CNC(=O)c5csc(N6CCOCC6)n5)n4)cc23)[C@@H](F)C1           > 8.00
2  CN1CC[C@@H](Nc2cccn3c(SC(F)(F)F)c(-c4noc(CNC(=O)C5CC5)n4)nc23)[C@@H](F)C1     7.00 to 8.00
3  CN1CC[C@@H](Nc2cccn3c(SC(F)(F)F)c(-c4nsc(CNC(=O)c5cnn(C(C)(C)C)c5)n4)cc23)[C@@H](F)C1     6.00 to 7.00
4  CN1CC[C@@H](Nc2cccn3c(SC(F)(F)F)c(-c4noc(CNC(=O)C5(F)CCOCC5)n4)cc23)[C@@H](F)C1     7.00 to 8.00
5  COC1(C(=O)NCc2nc(-c3cc4c(N[C@@H]5CCN(C)C[C@@H]5F)cccn4c3SC(F)(F)F)no2)CC1     7.00 to 8.00
6  CNC(=O)c1ccc(C(=O)NCc2nc(-c3cc4c(N[C@@H]5CCN(C)C[C@@H]5F)cccn4c3SC(F)(F)F)no2)cc1           > 8.00

---

TARGET_OR_TEST_SYSTEM: p53 Y220C mutant protein (amino acid residues 94-293) (Homo sapiens, UniProt P04637, Y220C)
Construct: p53 Y220C mutant protein (amino acid residues 94-293)
TEST_NAME: Surface Plasmon Resonance (SPR) assay, p53 Y220C Kd_kinetic
RECORDED_CONDITIONS: multi-cycle kinetics, 16 or 20 °C, pH 7.5, 1:1 binding model
ASSAY_METRIC: Kd

In [3]: df
Out[3]:
                                 chem_smiles  endpoint_result
 0  CC(=O)NCc1nc(-c2cc3c(N[C@@H]4CCN(C)C[C@@H]4F)cccn3c2SC(F)(F)F)no1          < 10 nM
 1  Cc1c(C(=O)NCc2nc(-c3cc4c(N[C@@H]5CCN(C)C[C@@H]5F)cccn4c3SC(F)(F)F)no2)sc2nc[nH]c(=O)c12     10 to 100 nM
 2  CNC(=O)c1coc(NCc2nc(-c3cc4c(N[C@@H]5CCN(C)C[C@@H]5F)cccn4c3SC(F)(F)F)no2)n1          < 10 nM
 3  CN1CC[C@@H](Nc2cccn3c(SC(F)(F)F)c(-c4noc(CNC(=O)c5ccc(-c6ccn[nH]6)s5)n4)cc23)[C@@H](F)C1     10 to 100 nM
 4  CN1CC[C@@H](Nc2cccn3c(SC(F)(F)F)c(-c4noc(CNC(=O)c5cnco5)n4)cc23)[C@@H](F)C1          < 10 nM
 5  CN1CC[C@@H](Nc2cccn3c(SC(F)(F)F)c(-c4noc(CNC(=O)c5cnc[nH]5)n4)cc23)[C@@H](F)C1          < 10 nM
 6  CN1CC[C@@H](Nc2cccn3c(SC(F)(F)F)c(-c4noc(CNC(=O)c5ccns5)n4)cc23)[C@@H](F)C1          < 10 nM
 7  CN1CC[C@@H](Nc2cccn3c(SC(F)(F)F)c(-c4noc(CNC(=O)c5sccc5OC(F)F)n4)cc23)[C@@H](F)C1     10 to 100 nM
 8  CN1CC[C@@H](Nc2cccn3c(SC(F)(F)F)c(-c4noc(CNC(=O)c5ccc(S(C)(=O)=O)cc5)n4)cc23)[C@@H](F)C1          < 10 nM
 9  COc1ccc2n[nH]c(CC(=O)NCc3nc(-c4cc5c(N[C@@H]6CCN(C)C[C@@H]6F)cccn5c4SC(F)(F)F)no3)c2c1   100 to 1000 nM
10  C[C@@H](O)CC(=O)NCc1nc(-c2cc3c(N[C@@H]4CCN(C)C[C@@H]4F)cccn3c2SC(F)(F)F)no1          < 10 nM
11  CN1CC[C@@H](Nc2cccn3c(SC(F)(F)F)c(-c4noc(CNC(=O)c5ccn(CC(C)(C)O)c5)n4)cc23)[C@@H](F)C1          < 10 nM
12  CN1CC[C@@H](Nc2cccn3c(SC(F)(F)F)c(-c4noc(CNC(=O)c5ccn(C6(C)CCOCC6)c5)n4)cc23)[C@@H](F)C1          < 10 nM
13  CN1CC[C@@H](Nc2cccn3c(SC(F)(F)F)c(-c4noc(CNC(=O)c5ncn(C)n5)n4)cc23)[C@@H](F)C1          < 10 nM
14  CN1CC[C@@H](Nc2cccn3c(SC(F)(F)F)c(-c4noc(CNC(=O)[C@H]5C[C@@H](O)C5)n4)cc23)[C@@H](F)C1          < 10 nM
15  CN1CC[C@@H](Nc2cccn3c(SC(F)(F)F)c(-c4noc(CNC(=O)c5ccc6c(c5)NC(=O)C6)n4)cc23)[C@@H](F)C1          < 10 nM
16  CN1CC[C@@H](Nc2cccn3c(SC(F)(F)F)c(-c4noc(CNC(=O)c5cnn[nH]5)n4)cc23)[C@@H](F)C1          < 10 nM
17  COC(C)(C)C(=O)NCc1nc(-c2cc3c(N[C@@H]4CCN(C)C[C@@H]4F)cccn3c2SC(F)(F)F)no1     10 to 100 nM
18  CN1CC[C@@H](Nc2cccn3c(SC(F)(F)F)c(-c4noc(CNC(=O)N5CCOCC5)n4)cc23)[C@@H](F)C1          < 10 nM
19  COc1ccc2cc(C(=O)NCc3nc(-c4cc5c(N[C@@H]6CCN(C)C[C@@H]6F)cccn5c4SC(F)(F)F)no3)n(C)c2c1     10 to 100 nM
20  CN1CC[C@@H](Nc2cccn3c(SC(F)(F)F)c(-c4noc(CNC(=O)c5cccc6c5NC(=O)C6)n4)cc23)[C@@H](F)C1          < 10 nM
21  COc1ccc2[nH]nc(C(=O)NCc3nc(-c4cc5c(N[C@@H]6CCN(C)C[C@@H]6F)cccn5c4SC(F)(F)F)no3)c2c1   100 to 1000 nM
22  CN1CC[C@@H](Nc2cccn3c(SC(F)(F)F)c(-c4noc(CNC(=O)[C@H]5COCCN5C)n4)cc23)[C@@H](F)C1     10 to 100 nM
23  CN1CC[C@@H](Nc2cccn3c(SC(F)(F)F)c(-c4noc(CNC(=O)CC(C)(C)O)n4)cc23)[C@@H](F)C1     10 to 100 nM
24  Cc1ccsc1C(=O)NCc1nc(-c2cc3c(N[C@@H]4CCN(C)C[C@@H]4F)cccn3c2SC(F)(F)F)no1     10 to 100 nM
25  CN1CC[C@@H](Nc2cccn3c(SC(F)(F)F)c(-c4noc(CNC(=O)C5(c6ccc(F)cc6)CC5)n4)cc23)[C@@H](F)C1   100 to 1000 nM

---

TARGET_OR_TEST_SYSTEM: p53 Y220C mutant protein (amino acid residues 94-293) (Homo sapiens, UniProt P04637, Y220C)
Construct: p53 Y220C mutant protein (amino acid residues 94-293)
TEST_NAME: Surface Plasmon Resonance (SPR) assay, p53 Y220C Kd_kinetic
RECORDED_CONDITIONS: multi-cycle kinetics, 16 or 20 °C, pH 7.5, 1:1 binding model
pKd: −log10 of the molar value.
ASSAY_METRIC: pKd

>>> print(df.to_string())
                                chem_smiles  assay_metric  endpoint_result
0  CN1CC[C@@H](Nc2cccn3c(SC(F)(F)F)c(-c4noc(CNC(=O)c5cnn(C(C)(C)C)c5)n4)cc23)[C@@H](F)C1           pKd           > 8.00
1  CN1CC[C@@H](Nc2cccn3c(SC(F)(F)F)c(-c4noc(CNC(=O)[C@@H]5COCCN5C)n4)cc23)[C@@H](F)C1           pKd     7.00 to 8.00
2  CN1CC[C@@H](Nc2cccn3c(SC(F)(F)F)c(-c4noc(CNC(=O)C#CC5(C)CC5)n4)cc23)[C@@H](F)C1           pKd           > 8.00
3  CN1CC[C@@H](Nc2cccn3c(SC(F)(F)F)c(-c4noc(CNC(=O)C5COC5)n4)cc23)[C@@H](F)C1           pKd           > 8.00
4  CN1CC[C@@H](Nc2cccn3c(SC(F)(F)F)c(-c4cc(CNC(=O)c5cnc(N(C)C)s5)no4)cc23)[C@@H](F)C1           pKd           > 8.00
